test system: RPMI-8226; assay: NCI tumour cell line growth inhibition, 48 h
The source made the active and inactive calls. Cut-off read from the data, not from the text of the source: active = GI50 up to about 1.1 µM and inactive = higher.
Outcomes: active, inactive

{"compound": "CC(=O)N1C=Cc2c(c(C)c3c([nH]c4ccccc43)c2C)C1", "class_assignment": "inactive"}
{"compound": "Cc1ccc(/N=N/c2c(C)nn(-c3ccccc3)c2C)c(Br)c1", "class_assignment": "inactive"}
{"compound": "O=C1CSC(c2c[nH]c3ccccc23)N1c1ccc(Cl)cc1 (stereo unspecified)", "class_assignment": "inactive"}
{"compound": "O=C(/C=C/c1c(O)ccc2ccccc12)c1cccc2ccccc12", "class_assignment": "inactive"}
{"compound": "O=C(CCC(=O)N/N=C/c1ccccc1O)N/N=C/c1ccccc1O", "class_assignment": "inactive"}
{"compound": "CCCNC(=O)Nc1c([N+](=O)[O-])cc(C(F)(F)F)cc1[N+](=O)[O-]", "class_assignment": "inactive"}
{"compound": "CC(C)c1cccc(C(C)C)c1NC(=O)C(=O)C1CCC2=C(Sc3ccccc3N2)C1=O (stereo unspecified)", "class_assignment": "inactive"}
{"compound": "O=C(Cc1ccccc1)N/N=C(\\C1=Nc2ccc([N+](=O)[O-])cc2NC1O)C(O)c1ccc([N+](=O)[O-])cc1 (stereo unspecified)", "class_assignment": "inactive"}
{"compound": "COCCOCCOC1=C(Cl)C(=O)c2c(O)ccc(O)c2C1=O", "class_assignment": "active"}
{"compound": "O=C(COc1ccccc1Cl)N1N=C(c2ccccc2)CC1(O)c1ccccc1 (stereo unspecified)", "class_assignment": "inactive"}
{"compound": "CC(=O)Nc1c(C)cc2c(nc3n2CCC3OC(C)=O)c1[N+](=O)[O-] (stereo unspecified)", "class_assignment": "inactive"}
{"compound": "CC(=O)On1c(-c2ccccc2-c2nc3ccccc3n2OC(C)=O)nc2ccccc21", "class_assignment": "inactive"}
{"compound": "FC1=C2CCCCCC2SC1(F)F (stereo unspecified)", "class_assignment": "inactive"}
{"compound": "C[C@]12CC[C@H]3[C@@H](CCC4=C[C@@H](OC5OCC(OC6OC(CO)C(O)C(O)C6O)C(O)C5O)CC[C@@]43C=O)[C@@]1(O)CCC2C1=CC(=O)OC1 (stereo partly specified)", "class_assignment": "active"}
{"compound": "CCOC(=O)c1c(NC(=S)Nc2ccc(C)cc2)sc2c1CCN(C)C2", "class_assignment": "inactive"}
{"compound": "O=C(Nc1nc2ncn(CCOC(=O)c3ccccc3)c2c(=S)[nH]1)c1ccccc1", "class_assignment": "inactive"}
{"compound": "Clc1ccc(C(Cc2ccccc2)c2c(Cl)nc(N3CCNCC3)nc2Cl)cc1 (stereo unspecified)", "class_assignment": "inactive"}
{"compound": "COc1ccc(NC(=O)C(=O)C(CC2C(=O)NC(=S)NC2=O)C(=O)c2ccc3ccccc3c2)c([N+](=O)[O-])c1 (stereo unspecified)", "class_assignment": "inactive"}
{"compound": "C/C=C(\\C)C(=O)O[C@@H]1CC(C)(C)CC2C3=CCC4[C@]56CC[C@](O)(OC5)C(C)(C)C6CC[C@@]4(C)C3(C)CC[C@]21C(=O)O (stereo partly specified)", "class_assignment": "inactive"}
{"compound": "COC(=O)c1nc(-c2ccc3c(n2)C(=O)C(=N)C(OC)=C3O)c(N)c(-c2ccc(OC)c(OC)c2O)c1C", "class_assignment": "inactive"}
{"compound": "CCCCON1C[C@@H](O)C(O)[C@@H](O)C1 (stereo partly specified)", "class_assignment": "inactive"}
{"compound": "CC(=O)OC12c3ccccc3-c3ccccc3C1C1C(=O)OC(=O)C12 (stereo unspecified)", "class_assignment": "inactive"}
{"compound": "COc1cc(C)c2c(c1C=O)Oc1c(c(C)c(O)c3c1C(O)OC3=O)OC2=O (stereo unspecified)", "class_assignment": "inactive"}
{"compound": "COc1cccc2c1C(=O)c1c(O)c3c(c(O)c1C2=O)C[C@@](O)(C(C)=O)CC3S(=O)(=O)O (stereo partly specified)", "class_assignment": "inactive"}
{"compound": "CC(=O)/C(=N\\N=C(N)N)c1ccccc1", "class_assignment": "inactive"}
{"compound": "CCOC(=O)/C=C(/C(=O)OCC)n1cc(C)c(=O)n(Cc2cn(CCCCOC(C)=O)nn2)c1=O", "class_assignment": "inactive"}
{"compound": "Cc1ccc(C)c2c1n1c(=O)n(C)c(=O)n21", "class_assignment": "inactive"}
{"compound": "CC1(C)CCCOc2cccc(c2)OCCCC(C)(C)C1=O", "class_assignment": "inactive"}
{"compound": "CC1(C)CC2(C)CC1CC2O (stereo unspecified)", "class_assignment": "inactive"}
{"compound": "CCOC(=O)Cn1c(=O)c2nc(SC)sc2n(CC)c1=S", "class_assignment": "inactive"}
{"compound": "COc1ccc(/C=C\\c2cc(OC)c3c(c2)OCO3)c(O)c1O", "class_assignment": "inactive"}

###

tested on: DLD-1; test: NCI tumour cell line growth inhibition, 48 h
The source made the active and inactive calls. No stated cut-off is given here; in the data, active = GI50 up to about 1.1 µM and inactive = higher.
Outcomes: 1 (yes) = active, 0 (no) = inactive

{"molecule": "O=C1C(Cl)=C(N2CCN(C3=C(Cl)C(=O)c4ccccc4C3=O)CC2)C(=O)c2ccccc21", "tested_on": "DLD-1", "class_assignment": "1 (yes)"}
{"molecule": "O=S1(=O)NN=C(NCc2ccc(F)cc2)c2ccccc21", "tested_on": "DLD-1", "class_assignment": "0 (no)"}
{"molecule": "CN(C)CCNC(=O)c1cccc2cc3c(Cl)cccc3nc12", "tested_on": "DLD-1", "class_assignment": "0 (no)"}
{"molecule": "CCCCCCCCCCCCCCCCCCC1=C(O)C(=O)C=C(OC)C1=O", "tested_on": "DLD-1", "class_assignment": "0 (no)"}
{"molecule": "Cc1ccc(Oc2ccc(C)cc2N)cc1", "tested_on": "DLD-1", "class_assignment": "0 (no)"}
{"molecule": "CCC1CN2CCC3(c4ccccc4)CC(C(=O)OC)=CC1C23 (configuration not stated)", "tested_on": "DLD-1", "class_assignment": "0 (no)"}
{"molecule": "CCCCC#CS(=O)(=O)C(F)(F)F", "tested_on": "DLD-1", "class_assignment": "0 (no)"}

###

Entries and their GI50
system: M14; experiment: NCI tumour cell line growth inhibition, 48 h
Active and inactive are the calls of the source. Rule as the data show it: active = GI50 up to about 1.1 µM and inactive = higher.

{"molecule": "CC(=O)NNc1nc(C)c(C(/C=C/c2ccc(NC(C)=O)cc2)=N/NS(=O)(=O)c2ccc(C)cc2)s1", "GI50": "> 100 µM (inactive)"}
{"molecule": "O=C1c2ccccc2C(=O)C1(O)c1c[nH]c2ccccc12", "GI50": "> 100 µM (inactive)"}
{"molecule": "CC1(C)CC(=O)C2=C(C1)c1c(ccc3ccccc13)NC2c1cn(Cc2ccc(Cl)cc2)c2ccccc12 (stereo not given)", "GI50": "> 100 µM (inactive)"}
{"molecule": "CC(C)C(Br)C(=O)NCC(=O)O (stereo not given)", "GI50": "> 100 µM (inactive)"}
{"molecule": "C[C@]12CC(c3ccccc3O1)C(C(N)=O)C(=O)N2 (stereo not given in full)", "GI50": "> 100 µM (inactive)"}
{"molecule": "Clc1ccc(/C=N/C23CC4CC(CC(C4)C2)C3)cc1Cl", "GI50": "> 10 µM (inactive)"}
{"molecule": "C/C(=C1\\C(=O)C(c2ccccc2)N(c2ccccc2)C1=O)c1ccc(Cl)cc1 (stereo not given)", "GI50": "19.8 µM (inactive)"}
{"molecule": "O=C1c2c(ccc3c2CCCC3)CC1Cc1ccc2c(c1)CCCC2 (stereo not given)", "GI50": "35.7 µM (inactive)"}
{"molecule": "COc1ccc(C(=O)Oc2c(C#N)sc3c2c(=O)n(-c2ccccc2)c(=S)n3-c2ccccc2)cc1", "GI50": "20.3 µM (inactive)"}
{"molecule": "CC1CC(C)C(O)C(C2CC(CC(=O)NC3CCCCC3)CC(=O)O2)C1 (stereo not given)", "GI50": "> 100 µM (inactive)"}

###

test system: DU-145; assay: NCI tumour cell line growth inhibition, 48 h
The source made the active and inactive calls. Cut-off read from the data, not from the text of the source: active = GI50 up to about 1.1 µM and inactive = higher.
Entries and their GI50

{"line_notation": "CN(NC(=O)c1ccco1)C1=NCCN1", "GI50": "> 100 µM (inactive)"}
{"line_notation": "COC(=O)[C@@H](Nc1ccccc1)[C@@]1(C(=O)OC)SC12c1ccccc1-c1ccccc12", "GI50": "> 100 µM (inactive)"}
{"line_notation": "C/C(=N/Nc1nc(C)cc(O)n1)C(=O)O", "GI50": "> 100 µM (inactive)"}
{"line_notation": "N#CSC#Cc1ccc(C#CSC#N)cc1", "GI50": "15.1 µM (inactive)"}

###

Entries and their GI50
tested on: PC-3; experiment: NCI tumour cell line growth inhibition, 48 h
The source made the active and inactive calls. No stated cut-off is given here; in the data, active = GI50 up to about 1.1 µM and inactive = higher.

{"molecule": "COc1ccc(NC2=CC(=O)C(=O)c3ccccc32)nn1", "GI50": "2.73 µM (inactive)"}
{"molecule": "CC1=C(C(=O)OC(C)C)C(c2ccccc2[N+](=O)[O-])C(C(=O)OC(CO[N+](=O)[O-])CO[N+](=O)[O-])=C(C)N1 (stereo not given)", "GI50": "2.14 µM (inactive)"}
{"molecule": "CCOC(=O)Cn1c(=O)c2nc(SC)sc2n(CC)c1=S", "GI50": "> 100 µM (inactive)"}
{"molecule": "NC(Cc1cccc([N+](=O)[O-])c1)C(=O)O (stereo not given)", "GI50": "> 100 µM (inactive)"}
{"molecule": "O=C(O)/C=C/C(=O)Nc1nc[nH]n1", "GI50": "> 100 µM (inactive)"}
